- Tested on: Burkholderia glumae
- TEST_PROTOCOL: Material disinfection test
- Type: cell-based
- RUN_CONDITIONS: 50 times solution sprayed, 5 minutes
Exercise: for every item that follows, state its recorded Average value of viable bacteria counts on all materials examined.

As a guide, the following entries are already answered.
O=C(O)CC(O)(CC(=O)O)C(=O)O [Citric acid] ... 1.7 × 10^8 cfu/ml
CC(=O)O [Acetic acid] ... 3.3 × 10^7 cfu/ml
O=C1C=CC(=O)O1 [Maleic anhydride] ... 0 cfu/ml
O=C(O)/C=C\C(=O)O [Maleic acid] ... 0 cfu/ml
O=C(O)CC(O)C(=O)O (stereo not shown) [Malic acid] ... 5.2 × 10^8 cfu/ml
O=C(O)CCC(=O)O [Succinic acid] ... 1.5 × 10^8 cfu/ml

Reported Average value of viable bacteria counts on all materials examined ( O=C1O[C@H]([C@@H](O)CO)C(O)=C1O [Ascorbic acid] ) = 3.2 × 10^8 cfu/ml

----------
- System: Burkholderia plantarii
- TEST_PROTOCOL: Material disinfection test
- Assay type: cell-based
- RUN_CONDITIONS: 50 times solution sprayed, 5 minutes
Record form. Attribute: Average value of viable bacteria counts on all materials examined. Fill in for each entry.

Consider the worked cases shown below.
O=C(O)/C=C\C(=O)O [Maleic acid] ... 0 cfu/ml
CC(=O)O [Acetic acid] ... 8.3 × 10^6 cfu/ml
O=C(O)CC(O)(CC(=O)O)C(=O)O [Citric acid] ... 1.0 × 10^7 cfu/ml

Give Average value of viable bacteria counts on all materials examined for each listed item.
1. O=C1O[C@H]([C@@H](O)CO)C(O)=C1O [Ascorbic acid]
2. O=C1C=CC(=O)O1 [Maleic anhydride]
3. O=C(O)CCC(=O)O [Succinic acid]
4. O=C(O)CC(O)C(=O)O (stereo not shown) [Malic acid]

Output:
1.8 × 10^7 cfu/ml
0 cfu/ml
2.6 × 10^7 cfu/ml
3.2 × 10^7 cfu/ml

----------
- System: Botrytis cinerea
- TEST_PROTOCOL: Material disinfection test
- Type: cell-based
- RUN_CONDITIONS: 50 times solution sprayed, 5 minutes
Hi there, I'd appreciate the recorded average value of viable filamentous fungi counts on all materials examined for every entry that follows.

Guide cases for average value of viable filamentous fungi counts on all materials examined, answers given:
O=C(O)CCC(=O)O ... 4.3 × 10^5 cfu/ml
O=C(O)CC(O)C(=O)O (stereo not drawn) ... 2.9 × 10^5 cfu/ml
O=C(O)/C=C\C(=O)O ... 0 cfu/ml
O=C(O)CC(O)(CC(=O)O)C(=O)O ... 4.6 × 10^5 cfu/ml
CC(=O)O ... 2.6 × 10^2 cfu/ml

Shift focus to the following entry.
average value of viable filamentous fungi counts on all materials examined reading for `O=C1O[C@H]([C@@H](O)CO)C(O)=C1O` : 5.0 × 10^5 cfu/ml

----------
Can you tell me Average value of viable bacteria counts on all materials examined for the items I'm about to list?
- Tested on: Erwinia chrysanthemi
- TEST_PROTOCOL: Material disinfection test
- Format: cell-based
- RUN_CONDITIONS: 50 times solution sprayed, 5 minutes

Here are 6 compounds. What values of Average value of viable bacteria counts on all materials examined were reported for them?
1. O=C(O)/C=C\C(=O)O
2. O=C(O)CCC(=O)O
3. O=C1O[C@H]([C@@H](O)CO)C(O)=C1O
4. CC(=O)O
5. O=C(O)CC(O)(CC(=O)O)C(=O)O
6. O=C(O)CC(O)C(=O)O (stereo not drawn)

Output:
["0 cfu/ml", "1.0 × 10^8 cfu/ml", "1.0 × 10^8 cfu/ml", "1.1 × 10^7 cfu/ml", "1.9 × 10^8 cfu/ml", "1.2 × 10^8 cfu/ml"]

----------
- System: Rhizoctonia solani
- TEST_PROTOCOL: Material disinfection test
- Type: cell-based
- RUN_CONDITIONS: 50 times solution sprayed, 5 minutes
REPORTED_PROPERTY: average value of viable filamentous fungi counts on all materials examined

O=C(O)CCC(=O)O [Succinic acid] ... 2.1 × 10^5 cfu/ml
O=C(O)CC(O)C(=O)O (stereo not drawn) [Malic acid] ... 1.8 × 10^5 cfu/ml
O=C1O[C@H]([C@@H](O)CO)C(O)=C1O [Ascorbic acid] ... 2.0 × 10^5 cfu/ml
CC(=O)O [Acetic acid] ... 3.1 × 10^2 cfu/ml
O=C(O)CC(O)(CC(=O)O)C(=O)O [Citric acid] ... 1.7 × 10^5 cfu/ml

Next compound, please.
Query O=C(O)/C=C\C(=O)O [Maleic acid] yields average value of viable filamentous fungi counts on all materials examined of 0 cfu/ml

----------
For each entry below, report its Average value of viable bacteria counts on all materials examined value.
- System: Burkholderia plantarii
- TEST_PROTOCOL: Material disinfection test
- Format: cell-based
- RUN_CONDITIONS: 10 times solution sprayed, 5 minutes

Examples with their reported Average value of viable bacteria counts on all materials examined follow.
O=C(O)CC(O)C(=O)O (centres unmarked) [Malic acid] ... 1.0 × 10^7 cfu/ml
CC(=O)O [Acetic acid] ... 1.2 × 10^3 cfu/ml
O=C(O)CCC(=O)O [Succinic acid] ... 2.5 × 10^7 cfu/ml
O=C(O)CC(O)(CC(=O)O)C(=O)O [Citric acid] ... 3.8 × 10^7 cfu/ml

Now consider a different molecule.
Lab note: measured Average value of viable bacteria counts on all materials examined of O=C1O[C@H]([C@@H](O)CO)C(O)=C1O [Ascorbic acid] was 1.6 × 10^7 cfu/ml

----------
Assignment: determine reported Average value of viable bacteria counts on all materials examined for the given compounds.
- Test system: Ralstonia solanacearum
- Assay type: cell-based
- RUN_CONDITIONS: 10 times solution sprayed, 5 minutes

O=C(O)CCC(=O)O [Succinic acid] ... 1.1 × 10^9 cfu/ml
O=C(O)CC(O)C(=O)O (centres unmarked) [Malic acid] ... 9.5 × 10^8 cfu/ml
O=C1O[C@H]([C@@H](O)CO)C(O)=C1O [Ascorbic acid] ... 8.5 × 10^8 cfu/ml
O=C(O)CC(O)(CC(=O)O)C(=O)O [Citric acid] ... 1.1 × 10^9 cfu/ml

With those in mind, consider the next compound.
Looking up CC(=O)O [Acetic acid] , I see its Average value of viable bacteria counts on all materials examined listed as 2.8 × 10^2 cfu/ml

----------
- System: Erwinia chrysanthemi
- TEST_PROTOCOL: Material disinfection test
- Assay type: cell-based
- RUN_CONDITIONS: 10 times solution sprayed, 5 minutes
REPORTED_PROPERTY: Average value of viable bacteria counts on all materials examined

The following molecules have reported results that may help.
O=C1O[C@H]([C@@H](O)CO)C(O)=C1O ... 1.0 × 10^8 cfu/ml
O=C(O)CC(O)(CC(=O)O)C(=O)O ... 1.7 × 10^8 cfu/ml
CC(=O)O ... 3.2 × 10^3 cfu/ml
O=C(O)CC(O)C(=O)O (centres unmarked) ... 1.4 × 10^8 cfu/ml

Then this molecule:
Form: molecule = `O=C(O)CCC(=O)O` ; Average value of viable bacteria counts on all materials examined = 1.0 × 10^8 cfu/ml
